Values were extracted from the RNAGym collection of RNA variant scans (doi:10.1126/science.aae0568).

B1: tRNA (parent)
chain: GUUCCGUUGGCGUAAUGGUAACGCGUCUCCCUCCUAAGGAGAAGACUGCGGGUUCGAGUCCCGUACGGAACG

# Variants of: B1
# method_notes: yeast fitness relative to wild type (ratio to wild type); higher = fitter; tRNA-Arg(CCU), competitive growth, 37 C, YPD
This sample holds only a part of the variants without activity.
Collected yeast fitness values appear next to each entry.
Reply with the value as a number alone.

Looking up U7G A15G , I see its yeast fitness listed as 0.913

***
Looking up C11U A37G , I see its yeast fitness listed as 0.896
